test: PK Study of Compounds in Rats; assay type: in vivo, Male SD rats; details: male, SD, rat, whole blood, IV 1 mg/kg (n=3), mean, read-out: C0/Cmax
Measurement type: Cmax
Please answer using a numeric value trailed by its unit.

# example entries with known answers
>>> value("CC1OCCCn2c(c3c4cc(ccc42)-c2csc(n2)CC(NC(=O)C2C(C)C2C)C(=O)N2NC(C(=O)OCC(C)(C)C3)C3CC2C3)-c2cc(N3CCN(C)CC3)cnc21 (stereo not drawn)")
"4250 ng/mL"
>>> value("CC1OCCCn2c(c3c4cc(ccc42)-c2csc(n2)CC(NC(=O)C2C(C)C2C)C(=O)N2NC(C(=O)OCC(C)(C)C3)C3CC2C3)-c2cc(N3CCN(C4COC4)CC3)cnc21 (stereo not drawn)")
"6060 ng/mL"

Here is another compound to look at.
Prompt: # query: Cmax of entry CC1OCCCn2c(c3c4cc(ccc42)-c2csc(n2)CC(NC(=O)C2C4COCC42)C(=O)N2NC(C(=O)OCC(C)(C)C3)C3CC2C3)-c2cc(N3CCN(C)CC3)cnc21 (stereo not drawn)
Completion: 4220 ng/mL

----------
Task for the reader: assign each of the following compounds its reported pIC50.
Target: KRAS G12V-cRAF (Homo sapiens, UniProt P01116, G12V)
Construct: expressed in transfected cells
Sequence (P01116 1-188 isoform P01116-2 G12V): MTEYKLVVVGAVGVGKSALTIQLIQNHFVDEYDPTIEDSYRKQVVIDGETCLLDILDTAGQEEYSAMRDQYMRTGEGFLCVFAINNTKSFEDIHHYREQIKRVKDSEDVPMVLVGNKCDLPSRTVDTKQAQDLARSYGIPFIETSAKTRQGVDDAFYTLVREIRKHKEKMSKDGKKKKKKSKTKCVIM
Test: Cellular KRAS G12V-cRAF Binding Inhibition Assay (NanoBRET, AD293 stable cells)
Format: cell-based
Settings: 3 h incubation, read-out: NanoBRET KRAS G12V
Procedure: NanoLuc® luciferase was used as the energy donor, and NanoBRET™ 618 fluorescent ligand labeled with the HaloTag® protein was used as the energy acceptor to detect protein-protein interactions in living cells. […] The luminescence data were calculated and converted into inhibition percent. The inhibition percent of KRAS G12V-cRAF binding was calculated according to the following formula: Inhibition Percent = (MaxValue−MeasuredValue)/(MaxValue−Blank) × 100% [formula] […]
One number for each entry, as −log10 of the molar value.

# example entries with known answers
>>> value("CC1CN(c2cnc3c(c2)-c2c4c5cc(ccc5n2CCCOC3C)-c2csc(n2)CC(NC(=O)C2CC2C(F)F)C(=O)N2CCCC(N2)C(=O)OCC(C)(C)C4)CC(C)O1 (stereo not shown) [Example 128]")
7.94
>>> value("CC1OCCCn2c(c3c4cc(ccc42)-c2csc(n2)CC(NC(=O)C2CC2C(F)F)C(=O)N2CCCC(N2)C(=O)OCC(C)(C)C3)-c2cc(N3CCCC(N(C)C)C3)cnc21 (stereo not shown)")
8.09
>>> value("CC1OCCCn2c(c3c4cc(ccc42)-c2csc(n2)CC(NC(=O)C2C(C)C2C)C(=O)N2NC(C(=O)OCC(C)(C)C3)C3CC2C3)-c2cc(N3CCN(C)CC3)cnc21 (stereo not shown)")
8.27

Field: pIC50. Fill in for each record below.
1. CC1OCCCn2c(c3c4cc(ccc42)-c2csc(n2)CC(NC(=O)C2CC2C(F)F)C(=O)N2CCCC(N2)C(=O)OCC(C)(C)C3)-c2cc(N3CCOCC3)cnc21 (stereo not shown)
2. CC1OCCCn2c(c3c4cc(ccc42)-c2csc(n2)CC(NC(=O)C2CC2C(F)F)C(=O)N2CCCC(N2)C(=O)OCC(C)(C)C3)-c2cc(N3CCN(C)CC3)cnc21 (stereo not shown)
3. CCN1CCN(c2cnc3c(c2)-c2c4c5cc(ccc5n2CCCOC3C)-c2csc(n2)CC(NC(=O)C2CC2C)C(=O)N2CCCC(N2)C(=O)OCC(C)(C)C4)CC1 (stereo not shown)
4. CC1CN(c2cnc3c(c2)-c2c4c5cc(ccc5n2CCCOC3C)-c2csc(n2)CC(NC(=O)C2CC2C(F)F)C(=O)N2CCCC(N2)C(=O)OCC(C)(C)C4)CCO1 (stereo not shown)

Completion:
7.92
8.02
7.82
7.79
